# Lookup of reported Protective value (%) keyed by entry
# Tested on: Botrytis cinerea
# test_summary: Controlling effect on cucumber gray mold by foliage spray treatment (Tests 1 and 2)
# Format: in vivo
# applied_conditions: foliage spray 12.5 mg/L, 1,000 L/ha, four days after inoculation
Hi! Could you send only the number? It should be in %, unit omitted.

# query: Protective value (%) of entry CC1(CCl)CCC(Cc2ccc(F)cc2)C1(O)Cn1cncn1 (single isomer, unassigned) [Compound (1-2b)]
98

I would be grateful if you could share the reported Protective value (%) for CC1(CCl)CCC(Cc2ccc(F)cc2)C1(O)Cn1cncn1 (single isomer, unassigned) [Compound (1-2a)] .
100

Give the measured Protective value (%) of CC1(CCl)CCC(Cc2ccc(Cl)cc2)C1(O)Cn1cncn1 (single isomer, unassigned) [Compound (1-1a)] .
100

Sample CC1(CCl)CCC(Cc2ccc(Cl)cc2)C1(O)Cn1cncn1 (single isomer, unassigned) [Compound (1-1b)] — what was its Protective value (%)?
45

###

# System: Septoria tritici
# test_summary: Test 2 for antifungal effect, plate medium: S.t
# Type: cell-based
# applied_conditions: 1.25 mg/L, PDA plate medium
// Antifungal index (mycelial growth inhibition rate) lookup, one value per entry

Please review the following examples before continuing.
compound	result
CC1(CCl)CCC(Cc2ccc(F)cc2)C1(O)Cn1cncn1 (single isomer, unassigned) [Compound (1-2b)]	5 (90% or greater)
CC1(CCl)CCC(Cc2ccc(Cl)cc2)C1(O)Cn1cncn1 (single isomer, unassigned) [Compound (1-1a)]	1 (Less than 60%)
CC1(CCl)CCC(Cc2ccc(Cl)cc2)C1(O)Cn1cncn1 (single isomer, unassigned) [Compound (1-1b)]	5 (90% or greater)

Now consider a different compound.
Data request, read-out Antifungal index (mycelial growth inhibition rate), for CC1(CCl)CCC(Cc2ccc(F)cc2)C1(O)Cn1cncn1 (single isomer, unassigned) [Compound (1-2a)]
3 (Less than 80% but not less than 70%)

###

The compounds listed here are annotated with their Antifungal index (mycelial growth inhibition rate).
# Test system: Gibberella fujikuroi
# test_summary: Test 1 for antifungal effect, plate medium: G.f
# Assay type: cell-based
# applied_conditions: 0.16 mg/L, PDA plate medium
# Method: Compound (1-1a) or Compound (1-2a) was dissolved in dimethyl sulfoxide, and the resulting solution was added to a PDA medium (potato dextrose-agar medium) at about 60° C. The medium and the solution were mixed thoroughly in a conical flask, poured into a petri dish, and allowed to solidify. In this way, a plate medium containing Compound (1-1a) or Compound (1-2a) at a certain concentration was prepared. […]

Completed entries (count: 2):
compound	test_target	result
CC1(CCl)CCC(Cc2ccc(Cl)cc2)C1(O)Cn1cncn1 (single isomer, unassigned) [Compound (1-1b)]	Gibberella fujikuroi	3 (Less than 80% but not less than 70%)
CC1(CCl)CCC(Cc2ccc(Cl)cc2)C1(O)Cn1cncn1 (single isomer, unassigned) [Compound (1-1a)]	Gibberella fujikuroi	5 (90% or greater)

If you can, please state the reported Antifungal index (mycelial growth inhibition rate) value of CC1(CCl)CCC(Cc2ccc(F)cc2)C1(O)Cn1cncn1 (single isomer, unassigned) [Compound (1-2b)] .
3 (Less than 80% but not less than 70%)

Name the reported Antifungal index (mycelial growth inhibition rate) value associated with the compound CC1(CCl)CCC(Cc2ccc(F)cc2)C1(O)Cn1cncn1 (single isomer, unassigned) [Compound (1-2a)]
4 (Less than 90% but not less than 80%)

###

Antifungal index (mycelial growth inhibition rate) values, listed per item
# System: Fusarium oxysporum
# test_summary: Test 2 for antifungal effect, plate medium: F.c
# Type: cell-based
# applied_conditions: 0.31 mg/L, PDA plate medium

Below, each entry is followed by its recorded Antifungal index (mycelial growth inhibition rate) result.
compound	test_target	result
CC1(CCl)CCC(Cc2ccc(Cl)cc2)C1(O)Cn1cncn1 (single isomer, unassigned) [Compound (1-1a)]	Fusarium oxysporum	4 (Less than 90% but not less than 80%)
CC1(CCl)CCC(Cc2ccc(F)cc2)C1(O)Cn1cncn1 (single isomer, unassigned) [Compound (1-2a)]	Fusarium oxysporum	3 (Less than 80% but not less than 70%)

Which Antifungal index (mycelial growth inhibition rate) reading was recorded for the compound CC1(CCl)CCC(Cc2ccc(F)cc2)C1(O)Cn1cncn1 (single isomer, unassigned) [Compound (1-2b)] ?
4 (Less than 90% but not less than 80%)

Quick one: Antifungal index (mycelial growth inhibition rate) for CC1(CCl)CCC(Cc2ccc(Cl)cc2)C1(O)Cn1cncn1 (single isomer, unassigned) [Compound (1-1b)] ?
5 (90% or greater)

###

Items are presented alongside their recorded Necrosis index.
# Tested on: wheat
# test_summary: Necrosis (adverse effects) of seed treatment on wheat seeds
# Format: in vivo
# applied_conditions: treatment amount 20 g ai/100 kg seeds, 20 days after sowing

Record request: Necrosis index value, item CC1(CCl)CCC(Cc2ccc(Cl)cc2)C1(O)Cn1cncn1 (single isomer, unassigned) [Compound (1-1a)]
0 (Less than 1%)

Necrosis index lookup needed for CC1(CCl)CCC(Cc2ccc(F)cc2)C1(O)Cn1cncn1 (single isomer, unassigned) [Compound (1-2a)] , thanks.
0 (Less than 1%)

Look up Necrosis index: CC1(CCl)CCC(Cc2ccc(Cl)cc2)C1(O)Cn1cncn1 (single isomer, unassigned) [Compound (1-1b)]
2 (Less than 20% but not less than 5%)

Look up Necrosis index: CC1(CCl)CCC(Cc2ccc(F)cc2)C1(O)Cn1cncn1 (single isomer, unassigned) [Compound (1-2b)]
3 (20% or more)

###

# System: wheat
# test_summary: Growth inhibition (adverse effects) of seed treatment on wheat seeds
# Format: in vivo
# applied_conditions: wheat, treatment amount 200 g ai/100 kg seeds, 20 days after sowing
# Protocol: A pot experiment was performed to evaluate the growth inhibition (adverse effects) caused by the seed treatment. […] 20 days after the sowing, a growth measure of wheat was evaluated. A growth inhibition index was calculated based on the criteria shown by Table 10. […]
reported_property: Growth inhibition index

// solved cases for Growth inhibition index follow
molecule	test_target	Growth inhibition index
CC1(CCl)CCC(Cc2ccc(Cl)cc2)C1(O)Cn1cncn1 (single isomer, unassigned) [Compound (1-1a)]	wheat	0 (50% or more)
CC1(CCl)CCC(Cc2ccc(Cl)cc2)C1(O)Cn1cncn1 (single isomer, unassigned) [Compound (1-1b)]	wheat	4 (Less than 20% but 10% or more)
CC1(CCl)CCC(Cc2ccc(F)cc2)C1(O)Cn1cncn1 (single isomer, unassigned) [Compound (1-2a)]	wheat	2 (Less than 40% but 30% or more)

// next entry
For the molecule shown here, CC1(CCl)CCC(Cc2ccc(F)cc2)C1(O)Cn1cncn1 (single isomer, unassigned) [Compound (1-2b)] , give the reported Growth inhibition index.
5 (Less than 10%)

The reported measurements were obtained from patent US9253983B2.
